Where do the numbers come from? From FireProtDB (doi:10.1021/bi060907v).

For each entry below, report its Tm value.
B1: Ribonuclease HII, O74035 (parent)
chain: MKIAGIDEAGRGPVIGPMVIAAVVVDENSLPKLEELKVRDSKKLTPKRREKLFNEILGVLDDYVILELPPDVIGSREGTLNEFEVENFAKALNSLKVKPDVIYADAADVDEERFARELGERLNFEAEVVAKHKADDIFPVVSAASILAKVTRDRAVEKLKEEYGEIGSGYPSDPRTRAFLENYYREHGEFPPIVRKGWKTLKKIAEKVESEKKAEERQATLDRYFRKV

Variants of: B1
Conditions: Thermococcus kodakarensis (strain ATCC BAA-918 / JCM 12380 / KOD1); pH 9; Thermal; DSC; Gly-NaOH 20 mM; reversible: Yes; structure 1IO2; whole UniProt chain shown
Entry rule: numbers only, all in °C.

Lookup result for D105A ; measured Tm: 89.4

Lookup result for D135A ; measured Tm: 90.4

Lookup result for D7N ; measured Tm: 88.3
